Quick reference for kon among some binders
target: T1, recombinant human CD3 epsilon/delta heterodimer (human, UniProt P07766 23-126; P04234 22-105); assay: Octet BLI, mAb on FAB2G sensor, hCD3 E/D 200-50 nM; R^2 0.99
T1 construct: Recombinant protein in solution (200-50 nM) in the Octet assay; also called hCD3 E/D; human CD3E/D
T1 sequence (P07766 23-126, stated change not applied, chain 1 of 2): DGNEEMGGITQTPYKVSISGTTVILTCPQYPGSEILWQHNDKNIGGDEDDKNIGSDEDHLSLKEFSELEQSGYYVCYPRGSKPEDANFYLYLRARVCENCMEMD
T1 sequence (P04234 22-105, stated change not applied, chain 2 of 2): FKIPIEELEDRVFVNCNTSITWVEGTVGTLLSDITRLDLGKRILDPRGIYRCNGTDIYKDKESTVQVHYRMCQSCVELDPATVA
# output: bare number, implied unit M⁻¹ s⁻¹

ABL-CD3-50 (antibody, V domains shown, Chimeric hybridoma mAb: human V, CH1, upper hinge; mouse middle hinge, CH2, CH3) VH: QVQLQQSGPGLVKPSQTLSLTCAISGDSVSSNSVAWNWIRQSPSRGLEWLGRTYSRSKWYNDYAVSVKSRITINPDTSKNQFSLELNSVTPEDTAVYYCARERKWELFLDYWGQGTLVTVSS VL: NFMLTQPHSVSESPGKTVTISCTRSSGSIASNYVQWYQQRPGISPTTVIYEDNQRPSGVPDRFSGSIDSSSNSASLTISGLKTEDEADYYCQSFDTSNVVFGGGTKLTVL
224000

Prompt: Suppose we examine the binder ABL-CD3-47 (antibody, V domains shown, Chimeric hybridoma mAb: human V, CH1, upper hinge; mouse middle hinge, CH2, CH3) VH: EVQLVESGGGLVQPGGSLRLSCAASGFTFSRYSMNWVRQAPGKGLEWVSYISRSSTTIYYADSVKGRFTISRDNAKNSLYLQMNSLRDEDAAVYYCARERWELLYFDYWGQGTLVTVSS VL: NFMLTQPHSVSESPGKTVTISCTRSSGSIASKYVQWYQQRPGSSPTTVIYEDNQRPSGVPDRFSGSIDSSSNSASLTISGLKTEDEADYYCQSYYSNNRVFGGGTKLTVL ; what kon value has been reported?
Response: 172000
